biological target: APOL1 G2 (Homo sapiens, UniProt O14791, DEL388-389); construct: expressed in transfected cells; host or cells: HEK293/T-REx APOL1 G2 clone #2, doxycycline-inducible; assay: APOL1 G2 FLIPR calcium influx assay (HEK T-REx/GCaMP6f/APOL1 G2 K6.3 cells); format: cell-based; conditions: HEK293 clone expressing GCaMP6f, doxycycline-induced APOL1 G2; prevention of calcium influx; geometric mean of at least 2 assay runs
Sequence (O14791 with tags, fused parts or gaps DEL388-389): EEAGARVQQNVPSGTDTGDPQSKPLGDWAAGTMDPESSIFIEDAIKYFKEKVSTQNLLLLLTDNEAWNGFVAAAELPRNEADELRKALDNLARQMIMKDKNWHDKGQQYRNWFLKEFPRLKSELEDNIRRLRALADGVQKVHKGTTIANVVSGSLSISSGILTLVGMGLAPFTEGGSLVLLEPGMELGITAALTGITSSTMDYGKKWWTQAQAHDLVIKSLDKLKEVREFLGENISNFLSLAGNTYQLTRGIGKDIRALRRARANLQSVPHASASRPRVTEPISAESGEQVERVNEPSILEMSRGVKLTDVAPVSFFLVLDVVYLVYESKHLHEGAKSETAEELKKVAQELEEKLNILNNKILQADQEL
OBSERVATION TYPE: AC50

Completed entries (count: 3):
{"MOLECULE": "C[C@@H]1C[C@H](COc2ccc(S(=O)(=O)CCO)cc2)CN1C1CCc2ccc(Cl)cc2C1 (stereo partly drawn) [Compound 61]", "AC50": "698 nM"}
{"MOLECULE": "C[C@@H]1C[C@H](COc2ccc(S(C)(=O)=O)cc2)CN1C1CCc2c(C#N)cc(Cl)cc2C1 (single isomer, unassigned) [Compound 8]", "AC50": "1070 nM"}
{"MOLECULE": "C[C@@H]1C[C@H](COc2ccc(S(=O)(=O)CCCS(C)(=O)=O)cc2)CN1C1CCc2ccc(Cl)cc2C1 (stereo partly drawn) [Compound 52]", "AC50": "1020 nM"}

Take each entry in turn and give its AC50.
1. C[C@@H]1CN(CCc2cccc(C#N)c2)C[C@H]1COc1ccc(S(C)(=O)=NCCS(C)(=O)=O)cc1 (stereo partly drawn) [Compound 68]
2. Cc1c(C#N)cc(Cl)cc1CCN1C[C@@H](CO)[C@H](COc2ccc(S(C)(=O)=O)cc2)C1
3. CC(Cc1cc(Cl)cc(C#N)c1)N1C[C@@H](COc2ccc(S(C)(=O)=O)cc2)[C@H](C)C1 (single isomer, unassigned) [Compound 19]
4. CC(c1ccc(OC[C@@H]2CN(CCc3cccc(Cl)c3)CCN2)cc1)S(C)(=O)=O (single isomer, unassigned) [Compound 142]
5. C[C@@H]1CN(CCc2cc(Cl)cc(C#N)c2)C[C@H]1COc1ccc(C2(S(C)(=O)=O)CC2)cc1

["708 nM", "392 nM", "444 nM", "703 nM", "189 nM"]

State its AC50 for this molecule: C[C@@H]1C[C@H](COc2ccc(S(C)(=O)=O)cc2)CN1C1Cc2ccc(Cl)cc2C1 (single isomer, unassigned) [Compound 3]
721 nM
